protocol: Tmax in male Sprague-Dawley rat at 10 mg/kg, po measured for 24 hrs by LC-MS/MS analysis
Assay type: ADME, organism-based
experimental.setup: in vivo
recorded.metric: Tmax (h)

[[record]]
smiles_notation = "CN1C(=O)c2sccc2N(C)c2nc(Nc3ccc(S(N)(=O)=O)cc3)ncc21"
measurement_units = "h"
reported_measurement = 3


---

target.of.assay: Phosphatidylinositol 4-phosphate 5-kinase type-1 gamma (Homo sapiens)
Sequence (O60331 whole entry): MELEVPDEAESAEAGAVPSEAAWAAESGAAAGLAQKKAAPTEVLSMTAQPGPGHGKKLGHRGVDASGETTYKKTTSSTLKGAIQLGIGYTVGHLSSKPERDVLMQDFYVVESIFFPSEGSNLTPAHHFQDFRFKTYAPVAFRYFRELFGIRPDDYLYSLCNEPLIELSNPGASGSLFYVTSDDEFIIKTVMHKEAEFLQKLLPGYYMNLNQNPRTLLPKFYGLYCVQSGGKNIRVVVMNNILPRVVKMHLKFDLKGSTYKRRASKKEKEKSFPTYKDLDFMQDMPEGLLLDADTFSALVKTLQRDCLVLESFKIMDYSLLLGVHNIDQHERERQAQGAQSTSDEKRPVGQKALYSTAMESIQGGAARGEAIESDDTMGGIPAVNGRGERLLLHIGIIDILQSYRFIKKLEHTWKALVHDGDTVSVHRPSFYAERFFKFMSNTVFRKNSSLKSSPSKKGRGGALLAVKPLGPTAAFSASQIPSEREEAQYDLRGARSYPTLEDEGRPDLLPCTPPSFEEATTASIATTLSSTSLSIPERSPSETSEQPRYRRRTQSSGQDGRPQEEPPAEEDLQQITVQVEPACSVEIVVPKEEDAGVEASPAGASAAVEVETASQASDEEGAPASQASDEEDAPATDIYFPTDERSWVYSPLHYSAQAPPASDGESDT
pIC50: −log10 of the molar value.
recorded.metric: pIC50

[[record]]
smiles_notation = "CN1C(=O)c2sccc2N(C)c2nc(Nc3ccc(S(N)(=O)=O)cc3)ncc21"
target_of_assay = "Phosphatidylinositol 4-phosphate 5-kinase type-1 gamma (Homo sapiens)"
reported_measurement = 6.36

